Origin of measurements: patent US20200123233A1

ASSAY_TARGET: T1, hRSV FTM- protein (membrane anchorless form of the fusion protein, 70 kDa) (human respiratory syncytial virus, UniProt P12568 26-524)
T1 construct: extracellular domain
TEST_NAME: SPR (Biacore T100), FTM- amine-coupled on CM5 chip, 1:1 Langmuir fit
READOUT_NAME: kon (M⁻¹ s⁻¹)

[[record]]
binder = "LG192B1 (VHH) VHH: EVQLVESGGGLVQPGGSLRLSCAASGLTFRNYAIGWFRQAPGKEREGVSCINSGGSITDYLDSVKGRFAISRDNAKSTVYLQMNSLKPEDTAVYYCATDLTSSCPIYSGTDYWGKGTLVTVSS"
experimental_result = 229000

[[record]]
binder = "LG192C6 (VHH) VHH: EVQLVESGGGLVQAGGSLRLSCEASGRTERYQAMGWFRQAPGKEREFVAVVTRWSGARTVYADSVKGRFTISRDNAENTVYLQMNSLKPEDTAVYTCAADSTNRNRGAIYYTWAYDYWGQGTQVTVSS"
experimental_result = "1.15e+06"

[[record]]
binder = "LG192H2 (VHH) VHH: EVQLVESGGGLVQAGGSLRLSCEASGRTFSNYAMGWFRQAPGKEREFVAVVTRWSGGRTVYADSVKGRFTISRDNAENTVYLQMNSLKPEDTAVYTCAADSTNRNSGAWYYTWAYDHWGQGTQVTVSS"
experimental_result = 829000

[[record]]
binder = "LG192F2 (VHH) VHH: EVQLVESGGGLVQAGGSLRLSCEASGRTFSPIAMGWFRQAPGKEREFVAVVTRWSGARTVYADSVKGRFTISRDNAENTVYLQMNSLKPEDTAVYTCAADSTNRNSGAIYYTWAYDYWGQGTQVTVSS"
experimental_result = 807000

